# Test system: Staphylococcus aureus
# condition.info: Concentration 32 ug.mL-1;; ASSAY_TEST Inhibition of Bacterial Growth; detection method Absorption (OD600); MEDIA CAMHB; plate type 384well; NBS; CORNING #3640; time 18 hr
# Description: Antibacterial activity against Staphylococcus aureus MRSA ATCC 43300 (CO-ADD:GP_020); MIC in CAMBH media, using NBS plates, by OD(600)
Entries with a potency or affinity are not part of this list.
// label = 1 if Inhibition is not less than 10%, otherwise -1

In [3]: df
Out[3]:
                                smiles_code  discrete_label
0  COc1cc(OC)c(NC(=O)Cn2nc3ccc(Sc4cccc(F)c4)nn3c2=O)cc1Cl              -1

Threshold query (Inhibition >= 10%) on CCc1ccc(N(Cc2cccc(OC)c2)S(=O)(=O)c2cccn3c(C)nnc23)cc1
-1

Threshold query (Inhibition >= 10%) on COc1cccc(-n2ccn3c(SCC(=O)Nc4ccccc4Cl)nnc3c2=O)c1
1

Threshold query (Inhibition >= 10%) on Cc1cccc(Oc2nc3ccccc3n3c(=O)n(CC(=O)Nc4cccc(C#N)c4)nc23)c1C
-1

* * *

# Test system: Staphylococcus aureus
# condition.info: Concentration 32 ug.mL-1;; ASSAY_TEST Inhibition of Bacterial Growth; detection method Absorption (OD600); MEDIA CAMHB; plate type 384well; NBS; CORNING #3640; time 18 hr
Measured potencies and affinities stand elsewhere.
This listing pairs compounds with measured Inhibition.
Please reply with the bare figure in % and do not write the unit itself.

Some entries whose results are on file:
                                smiles_code  unit_abbreviation  reported_result
0  Cc1ccc(Oc2nccn3c(=O)n(CC(=O)NCc4cccs4)nc23)cc1                  %            11.07
1  Cc1cccc(NC(=O)Cn2nc3c(SCc4ccccc4)nccn3c2=O)c1C                  %            -0.26
2  O=C(CSc1nnc2c(=O)n(-c3cccc(F)c3)ccn12)Nc1ccc(Br)cc1                  %            17.12

Please look up its Inhibition: COc1ccc(CNC(=O)CSc2nnc3c4cc(-c5ccc(OC)cc5)nn4ccn23)cc1
4.43

Please look up its Inhibition: CCc1ccc(N(Cc2ccc(OC)cc2)S(=O)(=O)c2cccn3c(C)nnc23)cc1
5.17

* * *

This listing pairs compounds with measured Inhibition.
# Test system: Escherichia coli
# condition.info: Concentration 32 ug.mL-1;; ASSAY_TEST Inhibition of Bacterial Growth; detection method Absorption (OD600); MEDIA CAMHB; plate type 384well; NBS; CORNING #3640; time 18 hr
# Description: Antibacterial activity against Escherichia coli ATCC 25922 (CO-ADD:GN_001); MIC in CAMBH media using NBS plates, by OD(600)
Potency and affinity values are given separately.
Answer by giving the amount and then stating its unit.

Please look up its Inhibition: O=C(CSc1nnc2c(=O)n(-c3ccc(F)cc3)ccn12)N1CCN(c2ccccc2F)CC1
-0.33%

Please look up its Inhibition: Cc1ccc(-c2cc3c4nn(CC(=O)Nc5cccc(C)c5C)c(=O)n4ccn3n2)cc1C
-0.36%

Please look up its Inhibition: O=C(Cn1nc2c3cc(-c4ccc(Cl)cc4)nn3ccn2c1=O)N1CCN(c2ccccc2)CC1
-1.74%

Please look up its Inhibition: CCCCn1c(=O)c2sccc2n2c(SCc3cccc(C(F)(F)F)c3)nnc12
-8.66%

Please look up its Inhibition: CCc1ccc(NC(=O)Cn2nc3cc(C)nc(Nc4ccc(F)c(C)c4)n3c2=O)cc1
-6.45%

Please look up its Inhibition: COc1ccc(-c2cc3c4nn(CC(=O)Nc5ccc(OC)c(OC)c5)c(=O)n4ccn3n2)cc1
2.66%

Please look up its Inhibition: CCc1nnc2ccc(S(=O)(=O)N(Cc3ccc(OC)cc3)c3cccc(F)c3)cn12
-12.26%

Please look up its Inhibition: O=c1c2sccc2n2c(SCc3cccc(C(F)(F)F)c3)nnc2n1Cc1cccs1
-11.21%

Please look up its Inhibition: CCc1ccc(Cn2c(=O)c3sccc3n3c(SCc4cccc(C(F)(F)F)c4)nnc23)cc1
-0.8%

Please look up its Inhibition: CSc1ccc(CNC(=O)Cn2nc3c(Oc4ccccc4)nccn3c2=O)cc1
1.2%

Hey, just so you know, these numbers are from ChEMBL document CHEMBL4513146.
